procedure.text: Mycobacterium tuberculosis growth inhibition, primary screen (AID 1259343)
experimental.conditions: at 10 µM, active compounds read high
Among all 6,200 compounds or so, about 2,900 (47%) were called active. So high a share suggests a set chosen from earlier hits. This is one part of the list.
outcome.measure: inhibition

{"columns": ["compound", "outcome.measure", "measured.result"],
 "data": [
  ["Cc1nc2ccccn2c1C(=O)OCc1cc(-c2ccco2)on1", "inhibition", "33.3% (inactive)"]
]}

Each compound below has a recorded value; state its inhibition.
1. CCOC(=O)c1cccc(NC(=O)NC/C=C(\C)CCC=C(C)C)c1
2. CCOc1ccc(OCCCOc2ccc(I)cc2)cc1
3. CC(C)Oc1ccc(NC(=O)c2cc(Br)cn2C)cc1
4. O=C1CC(C(=O)NCc2ccccc2Cl)c2ccc(F)cc2N1 (stereo unspecified)
5. CC(C)(C)n1ncc(NCc2cccc3c2OCO3)c(Cl)c1=O

### Response
["88.1% (active)", "92.8% (active)", "23% (inactive)", "87.3% (active)", "27.4% (inactive)"]

Each compound below has a recorded value; state its inhibition.
1. Cc1ccc2oc(-c3ccc(C)c(N)c3)nc2c1
2. Clc1ccc(N=C2SCC3CCCCN23)cc1 (stereo unspecified)
3. Cc1cc2n(c1)CCn1c(C)ccc1-2

### Response
["37.6% (inactive)", "-1.03% (inactive)", "-18.7% (inactive)"]

Each compound below has a recorded value; state its inhibition.
1. Cc1cc(Cl)ccc1OCc1ccc(C(N)=O)cc1
2. O=C(c1ccc2c(c1)CCO2)N1CCOC(c2ccc(Cl)c(Cl)c2)C1 (stereo unspecified)

### Response
1. 68.2% (active)
2. 7.26% (inactive)

Each compound below has a recorded value; state its inhibition.
1. CC(C)c1ccc(C(=O)Nc2sccc2C(=O)N2CCCC2)cc1
2. Cc1cccc(-c2nc(C)c(Cc3ccccc3)c(N3CCNCC3)n2)c1
3. Cn1ncc(NCc2ccc(-c3ccc4c(c3)CCO4)cc2)c(Cl)c1=O
4. NC(=O)c1cc(Cl)ccc1OCc1ccccc1Br

### Response
16.5% (inactive)
101% (active)
68.8% (active)
1.54% (inactive)

Each compound below has a recorded value; state its inhibition.
1. COCc1cc(C(=O)N2Cc3ccccc3N(C)CC2C)no1 (stereo unspecified)
2. CN(CCOc1ccc(F)cc1)Cc1nc2cc(Cl)ccc2c(=O)[nH]1
3. Cc1cccc(OCc2ccc(C(N)=O)cc2)c1C
4. O=C(Cc1ccccc1Cl)NCc1cc(F)cc(F)c1
5. COc1cccc(-c2cc(CC(=O)NC3CCCC3)no2)c1
6. S=C(Nc1ccc(Cl)cc1)Nc1ccc2cn[nH]c2c1
7. CCOc1ccc(OCCCOc2ccc(CC)cc2)cc1

### Response
1. -8.57% (inactive)
2. -0.34% (inactive)
3. 64.1% (active)
4. 24% (inactive)
5. 19.6% (inactive)
6. 37.2% (inactive)
7. -34% (inactive)

Each compound below has a recorded value; state its inhibition.
1. O=S(CCCOc1ccc(F)cc1)Cc1ccc(F)cc1Cl (stereo unspecified)
2. CN(Cc1cccs1)C(=O)c1cc2c(cc1O)CCCC2
3. COc1ccc(C(C)NC(=O)c2ccco2)cc1F (stereo unspecified)
4. CCC(C)Nc1nc(-c2ccc(Cl)cc2)cs1 (stereo unspecified)
5. CN(Cc1nc2scc(-c3ccco3)c2c(=O)[nH]1)C1CCCCC1
6. CCCC(C)c1nnc(NC(=O)c2cnc(-c3ccccn3)nc2)s1 (stereo unspecified)
7. Cc1nc(C)c(Cc2ccccc2Cl)c(N2CCN(C(=O)c3cccc(Br)c3)CC2)n1

### Response
89.6% (active)
67.8% (active)
15.9% (inactive)
-10.8% (inactive)
-6.13% (inactive)
-2.11% (inactive)
29.3% (inactive)

Each compound below has a recorded value; state its inhibition.
1. O=C(c1cc(COc2ccc3c(c2)CCCC3)on1)N1CCCCO1
2. Cc1nc(-c2cccc(F)c2)nc(N2CCNCC2)c1Cc1ccccc1
3. CC1(Cc2ccccc2Cl)C(=O)Nc2c(Cl)ccc(Cl)c21 (stereo unspecified)
4. CC(C)c1ccc(C(=O)Nc2nnc(C(C)C)s2)cc1
5. Cc1cc(-c2nc3c(C)cccc3o2)ccc1NC(=O)C(C)C
6. COC(=O)c1cnc(NC(=O)c2cc(F)cc(Br)c2)s1
7. CC(C)Cc1nc(CN(C)Cc2ccc3c(c2)CCO3)no1

### Response
1. 92.2% (active)
2. 66.1% (active)
3. 20.4% (inactive)
4. 90% (active)
5. 58.5% (active)
6. 19.9% (inactive)
7. 21.8% (inactive)

Each compound below has a recorded value; state its inhibition.
1. COc1ccc(NC(=S)Nc2ccc3cn[nH]c3c2)cc1
2. O=c1[nH]c(CN2CCCC2c2cccs2)nc2scc(-c3ccco3)c12 (stereo unspecified)
3. Cc1ccc(-c2nc(COC(=O)c3cc(Cl)c[nH]3)cs2)cc1

### Response
1. 68.9% (active)
2. 85% (active)
3. 34.1% (inactive)

Each compound below has a recorded value; state its inhibition.
1. Clc1ccc(OCCOCCOc2ccc(Cl)cc2)cc1
2. C=C1N(C)c2cc([N+](=O)[O-])c(N)cc2C1(C)C

### Response
21.3% (inactive)
64.8% (active)
